Target: Alpha-bungarotoxin (Bungarus multicinctus) (UniProt P60615)
Sequence (P60615 whole entry, looked up): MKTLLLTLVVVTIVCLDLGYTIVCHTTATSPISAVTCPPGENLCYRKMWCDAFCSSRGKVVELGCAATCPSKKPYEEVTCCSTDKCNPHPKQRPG
Assay: alpha-bungarotoxin binders on microarray, profiling panel, artefact control for SMM control protein annotation, biochemical, small-molecule microarray, Alexa647 label, 635/667 nm fluorescence (AID 1117)
Settings: alpha-BTX-A647 binding fluorescence, higher = more signal
TEST_READOUT: composite z-score
Please reply with the value in numeric form only.

Any idea what composite z-score was measured for C=C(C)c1cc2c(c(CCCCCC)n1)[Si](C(C)C)(C(C)C)OC2 ?
-0.676

Any idea what composite z-score was measured for C=CCOC(=O)[C@H]1[C@@H]2C(=O)O[C@@H](c3ccccc3)[C@@H](c3ccccc3)N2[C@@H](c2ccc(OCCOC(=O)[C@H]3C[C@H]4C(=O)N[C@@H](CC(C)C)C(=O)N4[C@H]3c3cccc(OCCO)c3)cc2)[C@]12C(=O)Nc1ccc(I)cc12 ?
0.473

Any idea what composite z-score was measured for CCC(CC)C(O)C1C=CC2C(=O)N(c3ccccc3)C(=O)C2N1Nc1ccc(C(C)C)cc1 (stereo not drawn) ?
1.27

Any idea what composite z-score was measured for C=C(COC)/C(=C/C[C@H](OC(=O)c1ccncc1)c1ccccc1OCCO)c1cnc2ccccc2c1 ?
1.04

Any idea what composite z-score was measured for O=C1NC(=O)C2C1C=CC(C(O)c1c(F)cccc1Cl)N2Nc1ccc(Cl)cc1Cl (stereo not drawn) ?
2.76

Any idea what composite z-score was measured for CCOC(=O)c1ccc(NC(=O)O[C@H]2[C@H](OC(=O)Nc3ccc4c(c3)OCO4)[C@H](OC(=O)Nc3ccc4c(c3)OCO4)[C@@H](OC)O[C@@H]2CO)cc1 ?
1.22

Any idea what composite z-score was measured for COCCOC(=O)N1C(=O)[C@@]2(c3cc(C#CC4=CCCCC4)ccc31)[C@H](c1ccc(OCCO)cc1)N1[C@H](c3ccccc3)[C@H](c3ccccc3)OC(=O)[C@H]1[C@@H]2C(=O)NC[C@H](O)c1ccccc1 ?
1.19

Any idea what composite z-score was measured for C=C(C(=O)CC[C@@H](OC(C)=O)c1ccc(CO)o1)C(C)C ?
0.844
